# Test system: XF 498 CNS
# testMethodNotes: NCI tumour cell line growth inhibition, 48 h
Readings of TGI for the listed molecules
experimentalEndpoint: TGI

1. COC1C2c3cc4c(cc3CC(C#N)(c3ccccc32)N1C(=O)c1ccccc1)OCO4 (stereo not drawn)	> 100 µM
2. NCCCCCCNCc1cccc2ccccc12	> 100 µM
3. C/C=C/COC(=O)CO[N+](=O)[O-]	> 100 µM

* * *

# System: EKVX NSCLC
# testMethodNotes: NCI tumour cell line growth inhibition, 48 h
experimentalEndpoint: GI50

1) Cc1c(C(N)=O)sc2c1c(=O)n(Cc1ccccc1)c1nnc(-c3ccc(Br)cc3)n21	3.11 µM
2) COc1ccc(C(CC(=O)c2ccccc2)C(C(=O)c2ccccc2)C(c2ccc(OC)cc2)C2C(=O)NC(=S)NC2=O)cc1 (stereo not given)	2.44 µM
3) Nc1nc(=O)n([C@@H]2CS[C@H](CO)O2)cc1F	> 100 µM
4) Nc1ccccc1C#C/C=C\C#Cc1c(F)c(F)c(F)c(F)c1F	29.7 µM
5) CC1=C[C@H]2C[C@H](C)[C@H]3CC[C@H](C)[C@]4(C1)C(=O)C(O)=C(C)C(=O)[C@@]324	42.9 µM

* * *

# System: HCT-15 colon
# testMethodNotes: NCI tumour cell line growth inhibition, 48 h
experimentalEndpoint: TGI

1. COc1cc(C2C3=C(COC3=O)N(CCO)c3cc4c(cc32)OCO4)cc(OC)c1O (stereo not given)	> 50 µM
2. Cn1c(=O)c2[nH]cnc2n(CC(N)=O)c1=O	> 100 µM
3. COc1ccccc1NS(=O)(=O)c1ccc2oc(SC(C)C)nc2c1	> 100 µM
4. O=S(=O)(O)c1ccc2c(N=Nc3ccc(Cl)cc3)c(O)ccc2c1	> 100 µM
5. C=C1C(=O)O[C@H]2[C@H]1CC/C(COC(=O)NCCc1c[nH]c3ccc(Cl)cc13)=C\CC[C@@]1(C)O[C@@H]21	2.66 µM

* * *

# Tested on: ACHN renal
# testMethodNotes: NCI tumour cell line growth inhibition, 48 h; in the data active = GI50 below about 0.43 µM; inactive = the rest
Possible outcomes: YES (active), NO (inactive)

1. COc1ccc(/C=C\c2cc(OC)c(OC)c(OC)c2)cc1OCC(=O)Nc1ccc2nc(C)sc2c1	NO
2. O=C(c1ccccc1)n1c(-c2ccccc2)cs/c1=N\S(=O)(=O)c1ccc(N2N=C3c4ccccc4CC3C2c2cccs2)cc1 (stereo not drawn)	NO
3. CN1CCN(Cc2ccc3c(NNC(=O)c4ccccc4)nc4cc(F)ccc4n23)CC1	YES
4. CC1=C(C)C2(O)C(=C(C)C1=O)/C(=C(/O)c1ccccc1)c1nc3ccccc3n12 (stereo not drawn)	NO
5. NC(=S)N=Nc1c(O)c2ccccc2c2ccccc12	NO
6. ClCc1cccc(CSc2ncnc3c2ncn3Cc2cccc(CCl)c2)c1	NO
7. COc1cccc(C2C3=C(COC3=O)N(CCO)c3cc4c(cc32)OCO4)c1 (stereo not drawn)	NO
8. COc1cc(NCCN=C(N)NC(N)=NC(C)C)c2ncccc2c1	NO
9. CNS(=O)(=O)OCC1OC(n2cnc3c(N)ncnc32)C(O)C1O (stereo not drawn)	NO
10. CC(=O)c1cc(C(=O)c2ccc3c(c2)Sc2ccccc2N3)c2c(C)cccn12	NO
11. O=S(=O)(Nc1ccc(F)c(Cl)c1)c1ccc(-c2cnc(C3CC3)o2)cc1	NO
12. O=C(NCCNc1nccc(-c2c(-c3cccc(O)c3)nc3sccn23)n1)c1ccccc1	NO
13. O=C(Nc1cc(Oc2cc(F)c(NC(=O)C3(C(=O)Nc4ccc(F)cc4)CC3)cc2F)ccn1)C1CC1	NO
